Data provenance is patent US8980838B2.

Target: WDR5 (Homo sapiens, UniProt P61964)
Construct: N-terminal His-tagged WDR5Δ23 (residues 24-334) was expressed from the pET28-MHL vector; His tag (N); made in house; host or cells: Rosetta2(DE3) pLysS cells (E. coli)
Experiment: fluorescence-polarization based competitive binding assay
Settings: FP competitive binding; WDR5Δ23 4 nM, tracer 0.6 nM, five hours incubation; first cyclic series (Table 1); read-out: IC50, binding affinity to WDR5
pIC50: −log10 of the molar value.
// values below are reported pIC50

Answered examples (6):
CCC1(CC)NC(=O)CCCCCCCNC(=O)[C@H](CCCNC(=N)N)NC1=O [Compound 4d] | < 6.00
CCC1(CC)NC(=O)CCCCNC(=O)[C@H](CCCNC(=N)N)NC1=O [Compound 4a] | < 4.00
CCC1(CC)NC(=O)CCCCCCCCNC(=O)[C@H](CCCNC(=N)N)NC1=O [Compound 4e] | < 6.00
CCC1(CC)NC(=O)CCCCCCNC(=O)[C@H](CCCNC(=N)N)NC1=O [Compound 4c] | < 4.00
CCC1(CC)NC(=O)CCCCCCCNC[C@H](CCCNC(=N)N)NC1=O [Compound 15] | < 4.00
CCC1(CC)NC(=O)CCCCCNC(=O)[C@H](CCCNC(=N)N)NC1=O [Compound 4b] | < 4.00

Proceed to the following item.
Find the measured pIC50 of CCC1(CC)NC(=O)CCCCCCCN(C(C)=O)C[C@H](CCCNC(=N)N)NC1=O [Compound 14] with WDR5 (Homo sapiens, UniProt P61964) as test system.
< 4.00
